Measurement description: Volume of distribution at steady state in rat at 2 mg/kg, iv
Format: ADME, organism-based
Conditions used: in vivo, read-out: Vdss
Reported values of Vd for individual entries
Measured endpoint: Vd (L/kg)

# Molecule, Measurement units, Reported
measured = [
    ("COc1ccc2ncc(F)c([C@@H](O)CC[C@@H]3CCN(C4CC(c5ccccc5)C4)C[C@@H]3C(=O)O)c2c1 (stereo partly drawn)", "L/kg", 1.82),
    ("COc1ccc2ncc(F)c([C@@H](O)CC[C@@H]3CCN(C4CC(c5cc(F)ccc5F)C4)C[C@@H]3C(=O)O)c2n1 (stereo partly drawn)", "L/kg", 1.89),
    ("COc1ccc2ncc(F)c([C@@H](O)CC[C@@H]3CCN(C4CC(c5cc(F)ccc5F)C4)C[C@@H]3C(=O)O)c2c1 (stereo partly drawn)", "L/kg", 1.82),
]

====

Measurement description: Half life in mouse at 10 mg/kg, iv
Type: ADME, organism-based
Conditions used: in vivo

# Compound, half-life (min)
records = [
    ("COc1ccc2ncc(F)c([C@@H](O)CC[C@@H]3CCN(C4CC(c5cc(F)ccc5F)C4)C[C@@H]3C(=O)O)c2n1 (some centres undefined)", 16.8),
    ("COc1ccc2ncc(F)c([C@@H](O)CC[C@@H]3CCN(C4CC(c5cc(F)ccc5F)C4)C[C@@H]3C(=O)O)c2c1 (some centres undefined)", 63),
    ("COc1ccc2nccc([C@@H](O)CC[C@@H]3CCN(C4CC(c5ccccc5)C4)C[C@@H]3C(=O)O)c2c1 (some centres undefined)", 20.4),
    ("COc1ccc2ncc(F)c([C@@H](O)CC[C@@H]3CCN(C4CC(c5ccccc5)C4)C[C@@H]3C(=O)O)c2c1 (some centres undefined)", 40.2),
]

====

Measurement description: Clearance in mouse at 10 mg/kg, iv
Type: ADME, organism-based
Conditions used: in vivo

# Compound, clearance
measured = [
    ("COc1ccc2nccc([C@@H](O)CC[C@@H]3CCN(C4CC(c5ccccc5)C4)C[C@@H]3C(=O)O)c2c1 (some centres undefined)", "36 mL/min/kg"),
    ("COc1ccc2ncc(F)c([C@@H](O)CC[C@@H]3CCN(C4CC(c5ccccc5)C4)C[C@@H]3C(=O)O)c2c1 (some centres undefined)", "17.3 mL/min/kg"),
    ("COc1ccc2ncc(F)c([C@@H](O)CC[C@@H]3CCN(C4CC(c5cc(F)ccc5F)C4)C[C@@H]3C(=O)O)c2n1 (some centres undefined)", "34 mL/min/kg"),
    ("COc1ccc2ncc(F)c([C@@H](O)CC[C@@H]3CCN(C4CC(c5cc(F)ccc5F)C4)C[C@@H]3C(=O)O)c2c1 (some centres undefined)", "13.7 mL/min/kg"),
]

====

Catalogue of Vd values
Measurement description: Volume of distribution at steady state in mouse at 10 mg/kg, iv
Format: ADME, organism-based
Conditions used: in vivo, read-out: Vdss

# Molecule, Vd / L/kg
measured = [
    ("COc1ccc2ncc(F)c([C@@H](O)CC[C@@H]3CCN(C4CC(c5cc(F)ccc5F)C4)C[C@@H]3C(=O)O)c2n1 (some centres undefined)", 0.825),
    ("COc1ccc2ncc(F)c([C@@H](O)CC[C@@H]3CCN(C4CC(c5cc(F)ccc5F)C4)C[C@@H]3C(=O)O)c2c1 (some centres undefined)", 1.24),
    ("COc1ccc2ncc(F)c([C@@H](O)CC[C@@H]3CCN(C4CC(c5ccccc5)C4)C[C@@H]3C(=O)O)c2c1 (some centres undefined)", 1.01),
    ("COc1ccc2nccc([C@@H](O)CC[C@@H]3CCN(C4CC(c5ccccc5)C4)C[C@@H]3C(=O)O)c2c1 (some centres undefined)", 1.06),
]

====

Measurement description: Fraction unbound in rat plasma
Format: ADME, cell-free
Measured endpoint: fraction unbound

# Compound, Measured endpoint, Reported
records = [
    ("COc1ccc2ncc(F)c([C@@H](O)CC[C@@H]3CCN(C4CC(c5cc(F)ccc5F)C4)C[C@@H]3C(=O)O)c2c1 (some centres undefined)", "fraction unbound", 0.197),
    ("COc1ccc2ncc(F)c([C@@H](O)CC[C@@H]3CCN(C4CC(c5ccccc5)C4)C[C@@H]3C(=O)O)c2c1 (some centres undefined)", "fraction unbound", "0.277 to 0.334"),
    ("COc1ccc2ncc(F)c([C@@H](O)CC[C@@H]3CCN(C4CC(c5cc(F)ccc5F)C4)C[C@@H]3C(=O)O)c2n1 (some centres undefined)", "fraction unbound", "0.121 to 0.189"),
    ("COc1ccc2nccc([C@@H](O)CC[C@@H]3CCN(C4CC(c5ccccc5)C4)C[C@@H]3C(=O)O)c2c1 (some centres undefined)", "fraction unbound", "0.296 to 0.437"),
]

====

Measured target: Voltage-gated inwardly rectifying potassium channel KCNH2 (Homo sapiens, UniProt Q12809)
Sequence (Q12809 whole entry): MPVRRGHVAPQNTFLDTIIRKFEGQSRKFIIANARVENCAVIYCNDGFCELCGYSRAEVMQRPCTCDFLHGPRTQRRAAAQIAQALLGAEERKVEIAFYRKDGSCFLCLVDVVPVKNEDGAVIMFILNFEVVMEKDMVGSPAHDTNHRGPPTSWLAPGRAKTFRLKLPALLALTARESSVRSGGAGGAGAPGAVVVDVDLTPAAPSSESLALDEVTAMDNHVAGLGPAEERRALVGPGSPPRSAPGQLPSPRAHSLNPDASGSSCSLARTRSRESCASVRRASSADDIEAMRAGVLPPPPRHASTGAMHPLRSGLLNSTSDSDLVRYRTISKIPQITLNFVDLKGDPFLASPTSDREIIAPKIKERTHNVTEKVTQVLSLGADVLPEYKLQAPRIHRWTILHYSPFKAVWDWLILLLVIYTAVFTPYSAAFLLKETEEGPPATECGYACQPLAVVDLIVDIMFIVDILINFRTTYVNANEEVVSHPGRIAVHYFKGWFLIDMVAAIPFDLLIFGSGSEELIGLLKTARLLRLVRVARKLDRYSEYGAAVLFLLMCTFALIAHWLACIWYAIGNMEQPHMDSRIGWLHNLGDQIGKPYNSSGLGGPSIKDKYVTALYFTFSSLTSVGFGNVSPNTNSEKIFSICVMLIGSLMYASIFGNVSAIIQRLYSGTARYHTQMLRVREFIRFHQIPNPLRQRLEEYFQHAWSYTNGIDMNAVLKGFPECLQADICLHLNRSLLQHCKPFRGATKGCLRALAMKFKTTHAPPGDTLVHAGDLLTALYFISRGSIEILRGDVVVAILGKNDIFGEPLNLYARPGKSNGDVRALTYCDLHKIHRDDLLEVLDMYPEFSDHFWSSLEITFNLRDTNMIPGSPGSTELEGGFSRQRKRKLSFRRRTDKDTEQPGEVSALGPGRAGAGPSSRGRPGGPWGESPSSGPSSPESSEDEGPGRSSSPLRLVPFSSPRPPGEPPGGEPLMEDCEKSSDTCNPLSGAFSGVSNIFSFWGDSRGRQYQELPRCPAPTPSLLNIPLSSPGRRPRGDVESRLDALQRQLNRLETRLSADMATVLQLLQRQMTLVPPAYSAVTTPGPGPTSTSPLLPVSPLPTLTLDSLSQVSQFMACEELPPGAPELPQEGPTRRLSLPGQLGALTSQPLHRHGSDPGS
Measurement description: Inhibition of human ERG
pIC50: −log10 of the molar value.

# Molecule, Comparison sign, pIC50
data = [
    ("COc1ccc2ncc(F)c([C@@H](O)CC[C@@H]3CCN(C4CC(c5cccc(F)c5F)C4)C[C@@H]3C(=O)O)c2c1 (some centres undefined)", "=", 4.60),
    ("COc1ccc2ncc(F)c([C@@H](O)CC[C@@H]3CCN(C4CC(c5cc(F)ccc5F)C4)C[C@@H]3C(=O)O)c2n1 (some centres undefined)", "=", 4.35),
    ("COc1ccc2ncc(F)c([C@@H](O)CC[C@@H]3CCN(C4CC(c5c(F)cccc5F)C4)C[C@@H]3C(=O)O)c2c1 (some centres undefined)", "=", 4.34),
    ("COc1ccc2ncc(F)c([C@@H](O)CC[C@@H]3CCN(C4CC(c5ccccc5)C4)C[C@@H]3C(=O)O)c2c1 (some centres undefined)", "=", 4.65),
    ("O=c1ccc2ncc(F)c3c2n1C[C@@]3(O)CN1CCC(NCc2cc3c(cn2)OCCO3)CC1", "<", 3.52),
    ("O=c1ccc2ncc(=O)n3c2n1C[C@H]3CN1CCC(NCc2cc3c(cn2)OCCC3)CC1 [GEPOTIDACIN]", "=", 2.88),
    ("COc1ccc2ncc(F)c([C@@H](O)CC[C@@H]3CCN(C4CC(c5cc(F)ccc5F)C4)C[C@@H]3C(=O)O)c2c1 (some centres undefined)", "=", 4.07),
    ("COc1ccc2ncc(F)c([C@@H](O)CC[C@@H]3CCN(C4CC(c5ncccc5F)C4)C[C@@H]3C(=O)O)c2c1 (some centres undefined)", "=", 4.97),
    ("COc1ccc2ncc(F)c([C@@H](O)CC[C@@H]3CCN(C4CC(c5ccno5)C4)C[C@@H]3C(=O)O)c2c1 (some centres undefined)", "<", 3.52),
]

====

# MIC90 values compiled below
Test system: Streptococcus pyogenes
Measurement description: Antibacterial activity against Streptococcus pyogenes
Type: functional
Measured endpoint: MIC90 (µg/mL)

# Compound, Measured target, Measured endpoint, Reported
data = [
    ("COc1ccc2ncc(F)c([C@@H](O)CC[C@@H]3CCN(C4CC(c5cccc(F)c5)C4)C[C@@H]3C(=O)O)c2c1 (some centres undefined)", "Streptococcus pyogenes", "MIC90", 0.5),
    ("COc1ccc2ncc(F)c([C@@H](O)CC[C@@H]3CCN(C4CC(c5ncccc5F)C4)C[C@@H]3C(=O)O)c2c1 (some centres undefined)", "Streptococcus pyogenes", "MIC90", 2),
]

====

Parameter clearance: see the listing below.
Measurement description: Clearance in rat at 2 mg/kg, iv
Type: ADME, organism-based
Conditions used: in vivo
Measured endpoint: clearance (mL/min/kg)

# Compound, Measurement units, Reported
records = [
    ("COc1ccc2ncc(F)c([C@@H](O)CC[C@@H]3CCN(C4CC(c5cc(F)ccc5F)C4)C[C@@H]3C(=O)O)c2n1 (stereo partly drawn)", "mL/min/kg", 32.7),
    ("COc1ccc2ncc(F)c([C@@H](O)CC[C@@H]3CCN(C4CC(c5ccccc5)C4)C[C@@H]3C(=O)O)c2c1 (stereo partly drawn)", "mL/min/kg", 18.4),
    ("COc1ccc2ncc(F)c([C@@H](O)CC[C@@H]3CCN(C4CC(c5cc(F)ccc5F)C4)C[C@@H]3C(=O)O)c2c1 (stereo partly drawn)", "mL/min/kg", 30.9),
]

====

Test system: Staphylococcus aureus
Measurement description: Antibacterial activity against Staphylococcus aureus containing DNA gyrase D83N mutations
Type: functional

# Molecule, Comparison sign, MIC, µg/mL
data = [
    ("COc1ccc2ncc(F)c([C@@H](O)CC[C@@H]3CCN(C4CC(c5ccno5)C4)C[C@@H]3C(=O)O)c2c1 (stereo partly drawn)", ">", 64),
    ("O=c1ccc2ncc(F)c3c2n1C[C@@]3(O)CN1CCC(NCc2cc3c(cn2)OCCO3)CC1", "=", 4),
    ("COc1ccc2ncc(F)c([C@@H](O)CC[C@@H]3CCN(C4CC(c5cc(F)ccc5F)C4)C[C@@H]3C(=O)O)c2c1 (stereo partly drawn)", "=", 3.4),
    ("COc1ccc2ncc(F)c([C@@H](O)CC[C@@H]3CCN(C4CC(c5ccc(F)s5)C4)C[C@@H]3C(=O)O)c2c1 (stereo partly drawn)", "=", 16),
    ("COc1ccc2ncc(F)c([C@@H](O)CC[C@@H]3CCN(C4CC(c5cccs5)C4)C[C@@H]3C(=O)O)c2c1 (stereo partly drawn)", "=", 11.3),
    ("COc1ccc2ncc(F)c([C@@H](O)CC[C@@H]3CCN(C4CC(c5cc(F)cc(F)c5F)C4)C[C@@H]3C(=O)O)c2c1 (stereo partly drawn)", "=", 1),
    ("COc1ccc2ncc(F)c([C@@H](O)CC[C@@H]3CCN(C4CC(c5cccc(F)c5F)C4)C[C@@H]3C(=O)O)c2c1 (stereo partly drawn)", "=", 8),
    ("COc1ccc2ncc(F)c([C@@H](O)CC[C@@H]3CCN(C4CC(c5ccccn5)C4)C[C@@H]3C(=O)O)c2c1 (stereo partly drawn)", ">", 64),
    ("COc1ccc2ncc(F)c([C@@H](O)CC[C@@H]3CCN(C4CC(c5cccc(F)c5)C4)C[C@@H]3C(=O)O)c2c1 (stereo partly drawn)", "=", 16),
    ("COc1ccc2ncc(F)c([C@@H](O)CC[C@@H]3CCN(C4CC(c5c(F)cccc5F)C4)C[C@@H]3C(=O)O)c2c1 (stereo partly drawn)", "=", 3.2),
    ("COc1ccc2ncc(F)c([C@@H](O)CC[C@@H]3CCN(C4CC(c5cncc(F)c5)C4)C[C@@H]3C(=O)O)c2c1 (stereo partly drawn)", ">", 64),
    ("COc1ccc2ncc(F)c([C@@H](O)CC[C@@H]3CCN(C4CC(c5ncccc5F)C4)C[C@@H]3C(=O)O)c2c1 (stereo partly drawn)", "=", 32),
    ("COc1ccc2ncc(F)c([C@@H](O)CC[C@@H]3CCN(C4CC(c5cc(F)ccc5F)C4)C[C@@H]3C(=O)O)c2n1 (stereo partly drawn)", "=", 2.5),
]
